Task for the reader: assign each of the following compounds its reported pIC50.
target: Vascular endothelial growth factor receptor 2 (Homo sapiens); type: cell-based, U-251
Sequence (P35968 whole entry): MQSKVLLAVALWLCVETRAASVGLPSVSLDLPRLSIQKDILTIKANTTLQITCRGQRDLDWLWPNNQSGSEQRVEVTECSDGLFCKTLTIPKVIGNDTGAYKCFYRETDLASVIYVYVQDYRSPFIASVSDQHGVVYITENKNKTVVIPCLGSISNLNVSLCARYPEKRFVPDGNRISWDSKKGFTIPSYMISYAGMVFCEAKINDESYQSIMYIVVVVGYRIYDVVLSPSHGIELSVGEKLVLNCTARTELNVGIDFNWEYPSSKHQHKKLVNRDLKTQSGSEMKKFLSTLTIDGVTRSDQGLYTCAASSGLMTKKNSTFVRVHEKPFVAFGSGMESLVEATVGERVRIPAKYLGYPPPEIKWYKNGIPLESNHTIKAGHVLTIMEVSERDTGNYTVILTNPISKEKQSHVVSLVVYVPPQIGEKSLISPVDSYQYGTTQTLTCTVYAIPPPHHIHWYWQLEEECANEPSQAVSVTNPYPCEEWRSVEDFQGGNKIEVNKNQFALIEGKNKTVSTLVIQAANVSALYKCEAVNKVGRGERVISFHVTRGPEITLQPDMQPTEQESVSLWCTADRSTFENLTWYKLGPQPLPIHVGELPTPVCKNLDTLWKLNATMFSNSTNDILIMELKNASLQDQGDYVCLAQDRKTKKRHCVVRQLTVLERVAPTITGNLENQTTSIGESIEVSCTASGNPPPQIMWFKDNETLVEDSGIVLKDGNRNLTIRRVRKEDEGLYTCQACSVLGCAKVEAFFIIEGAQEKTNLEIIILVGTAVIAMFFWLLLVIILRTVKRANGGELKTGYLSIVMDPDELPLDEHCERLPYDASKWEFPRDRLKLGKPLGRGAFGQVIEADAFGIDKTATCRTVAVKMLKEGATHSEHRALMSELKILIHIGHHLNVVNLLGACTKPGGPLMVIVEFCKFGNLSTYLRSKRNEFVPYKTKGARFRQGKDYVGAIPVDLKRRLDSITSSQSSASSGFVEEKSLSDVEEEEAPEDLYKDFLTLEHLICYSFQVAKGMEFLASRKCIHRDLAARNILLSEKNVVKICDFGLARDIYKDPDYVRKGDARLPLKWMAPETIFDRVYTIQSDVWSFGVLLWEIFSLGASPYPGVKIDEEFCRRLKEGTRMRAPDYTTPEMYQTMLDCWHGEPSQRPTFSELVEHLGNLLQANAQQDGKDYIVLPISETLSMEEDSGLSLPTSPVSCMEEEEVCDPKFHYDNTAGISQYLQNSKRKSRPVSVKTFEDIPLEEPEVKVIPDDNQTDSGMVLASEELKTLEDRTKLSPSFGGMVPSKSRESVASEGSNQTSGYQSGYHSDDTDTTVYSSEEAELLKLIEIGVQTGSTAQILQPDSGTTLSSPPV
Description: Inhibition of VEGFR2 in human U251 cells by phosphotyrosine ELISA assay
Give bare numbers, as −log10 of the molar value.

{"chemicalStructure": "Cc1nc(Nc2ccc(C(F)(F)F)cc2)c2cc(C)oc2n1", "pIC50": 7.18}
{"chemicalStructure": "Cc1nc(Nc2cccc3[nH]ccc23)c2cc(C)oc2n1", "pIC50": 6.99}
{"chemicalStructure": "CCN(c1ccc(OC)cc1)c1nc(C)nc2oc(C)cc12", "pIC50": 7.97}
{"chemicalStructure": "COc1ccc(Nc2nc(C)nc3oc(C)cc23)cc1", "pIC50": 7.37}
{"chemicalStructure": "Cc1nc(Nc2cccc3ccccc23)c2cc(C)oc2n1", "pIC50": 7.49}
{"chemicalStructure": "CCCN(c1ccc(OC)cc1)c1nc(C)nc2oc(C)cc12", "pIC50": 8.07}
{"chemicalStructure": "COc1ccc(N(c2nc(C)nc3oc(C)cc23)C(C)C)cc1", "pIC50": 7.81}
{"chemicalStructure": "Cc1nc(Nc2ccc(Cl)cc2)c2cc(C)oc2n1", "pIC50": 7.15}
{"chemicalStructure": "Cc1nc(Nc2ccc(F)c(Cl)c2)c2cc(C)oc2n1", "pIC50": 7.24}
{"chemicalStructure": "C#Cc1cccc(Nc2nc(C)nc3oc(C)cc23)c1", "pIC50": 7.12}

Please give the measured pIC50 for this compound: `CCCCN(c1ccc(OC)cc1)c1nc(C)nc2oc(C)cc12`
7.46

Where do these numbers come from? They come from ChEMBL document CHEMBL3297731.
